Catalogue of compounds with associated Taste intensity Salt (NaCl)
- System: umami and salt taste of 0.5% NaCl solution
- ASSAY: Tasting of NaCl solutions by flavourists (Example 2)
- Type: in vivo
- CONDITION CONTEXT: 0.5% NaCl + 5 ppm compound compared with 0.5% NaCl reference; scale -3 (much lower) to 3 (much higher), 0 = same as reference; average of flavourists' ratings

| COMPOUND | EXPERIMENTAL SYSTEM | Taste intensity Salt (NaCl) |
| --- | --- | --- |
| CC(C)NCc1ccc2c(c1)OCO2 [N-piperonyl isopropylamine] | umami and salt taste of 0.5% NaCl solution | 0.50 |
| CCCNCc1ccc2c(c1)OCO2 [N-piperonyl n-propylamine] | umami and salt taste of 0.5% NaCl solution | 1.00 |
| CCC(CO)NCc1ccc2c(c1)OCO2 (centres unmarked) [N-piperonyl 1-hydroxy-2-butylamine] | umami and salt taste of 0.5% NaCl solution | 0.67 |
| OCCNCc1ccc2c(c1)OCO2 [N-piperonyl 2-hydroxyethylamine] | umami and salt taste of 0.5% NaCl solution | 0.75 |
| CNCc1ccc2c(c1)OCO2 [N-piperonyl methylamine] | umami and salt taste of 0.5% NaCl solution | 0.25 |
| CCNCc1ccc(O)c(OC)c1.Cl [N-vanillyl ethylamine hydrochloride] | umami and salt taste of 0.5% NaCl solution | 0.67 |
| OCC(CO)NCc1ccc2c(c1)OCO2 [N-piperonyl 1,3-dihydroxy-2-propylamine] | umami and salt taste of 0.5% NaCl solution | 1.00 |
| CCC(CC)NCc1ccc2c(c1)OCO2 [N-piperonyl 3-pentylamine] | umami and salt taste of 0.5% NaCl solution | 0.50 |
| CCNCc1ccc2c(c1)OCO2 [N-piperonyl ethylamine] | umami and salt taste of 0.5% NaCl solution | 0.75 |
| C[C@H](NCc1ccc2c(c1)OCO2)C(=O)O [N-piperonyl alanine] | umami and salt taste of 0.5% NaCl solution | 0.50 |
| COc1cc(CNCCO)ccc1O.Cl | umami and salt taste of 0.5% NaCl solution | 0.33 |

---

- Test system: taste of NaCl, MSG and Ribo solutions
- ASSAY: Taste enhancement of NaCl, MSG and Ribo solutions, tasted by flavourists (Example 3)
- Format: in vivo
- CONDITION CONTEXT: solution D (0.5% NaCl + 5 ppm compound) compared with A (0.5% NaCl, = 0.0); linear scale 0 to 10; 5-10 flavourists

| MOLECULE | EXPERIMENTAL SYSTEM | Taste intensity NaCl |
| --- | --- | --- |
| CCC(CO)NCc1ccc2c(c1)OCO2 (stereo not shown) [N-piperonyl 1-hydroxy-2-butylamine] | taste of NaCl, MSG and Ribo solutions | 1.0 |
| CCNCc1ccc2c(c1)OCO2 [N-piperonyl ethylamine] | taste of NaCl, MSG and Ribo solutions | 1.3 |
| CCC(CC)NCc1ccc2c(c1)OCO2 [N-piperonyl 3-pentylamine] | taste of NaCl, MSG and Ribo solutions | 1.0 |
| OCC(CO)NCc1ccc2c(c1)OCO2 [N-piperonyl 1,3-dihydroxy-2-propylamine] | taste of NaCl, MSG and Ribo solutions | 2.3 |
